Data provenance: patent US20260137697A1

# Target: BRAF (Homo sapiens, UniProt P15056)
# Construct: GST; purchased Millipore Sigma B4062-10UG
# Sequence (P15056 whole entry): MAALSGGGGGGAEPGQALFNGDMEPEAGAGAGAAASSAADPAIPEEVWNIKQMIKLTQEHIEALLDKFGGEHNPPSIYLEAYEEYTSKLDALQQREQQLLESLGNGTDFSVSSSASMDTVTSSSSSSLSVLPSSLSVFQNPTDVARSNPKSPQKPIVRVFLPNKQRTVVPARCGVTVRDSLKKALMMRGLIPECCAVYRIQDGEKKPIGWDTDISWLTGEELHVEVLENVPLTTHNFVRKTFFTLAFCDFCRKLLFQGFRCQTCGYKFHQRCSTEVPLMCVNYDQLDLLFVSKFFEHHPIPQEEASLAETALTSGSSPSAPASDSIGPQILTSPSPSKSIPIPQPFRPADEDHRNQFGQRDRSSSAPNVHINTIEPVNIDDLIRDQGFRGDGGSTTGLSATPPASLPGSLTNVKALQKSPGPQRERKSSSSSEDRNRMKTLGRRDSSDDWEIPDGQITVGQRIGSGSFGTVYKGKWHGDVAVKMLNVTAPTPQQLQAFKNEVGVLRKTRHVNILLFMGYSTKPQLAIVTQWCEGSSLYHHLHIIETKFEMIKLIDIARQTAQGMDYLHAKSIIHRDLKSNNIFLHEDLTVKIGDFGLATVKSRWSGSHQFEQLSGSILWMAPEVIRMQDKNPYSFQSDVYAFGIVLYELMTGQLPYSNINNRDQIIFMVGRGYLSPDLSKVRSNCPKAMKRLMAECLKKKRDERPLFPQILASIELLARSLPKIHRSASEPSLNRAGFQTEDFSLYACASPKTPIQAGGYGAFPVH
# Assay procedure: BRAF kinase activity assay (ADP-Glo)
# Assay type: biochemical
# Condition details: Table 3; 10 μM ATP, kinase-dead MEK1 substrate
For each of the compounds below, state its IC50.

-- ask Need IC50 of O=S(=O)(Nc1ccc(F)c(Nc2ncnc3sc(-n4cnc5c(N6CCC(O)(C(F)(F)F)CC6)cccc54)nc23)c1F)c1cccc(Cl)c1Cl [Example 137] , thanks.
-- reply > 0.01 µM

-- ask Need IC50 of CN1CCN(S(=O)(=O)c2cn(-c3nc4c(Nc5c(F)ccc(NS(=O)(=O)c6cccc(Cl)c6Cl)c5F)ncnc4s3)c3ccccc23)CC1 [Example 12] , thanks.
-- reply 0.001 to 0.01 µM

-- ask Need IC50 of Cc1ncn(-c2nc3c(Nc4c(F)ccc(NS(=O)(=O)c5cccc(Cl)c5Cl)c4F)ncnc3s2)c1C [Example 103] , thanks.
-- reply 0.001 to 0.01 µM

-- ask Need IC50 of O=C(c1cn(-c2nc3c(Nc4c(F)ccc(NS(=O)(=O)c5cccc(Cl)c5Cl)c4F)ncnc3s2)c2ccccc12)N1C2CCC1CC(O)C2 (stereo not shown) [Example 86] , thanks.
-- reply 0.001 to 0.01 µM

-- ask Need IC50 of COCCOc1cccc2c1ncn2-c1nc2c(Nc3c(F)ccc(NS(=O)(=O)c4cccc(Cl)c4Cl)c3F)ncnc2s1 [Example 119] , thanks.
-- reply < 0.001 µM

-- ask Need IC50 of Cc1c(F)cccc1S(=O)(=O)Nc1ccc(F)c(Nc2ncnc3sc(-n4nc(C(=O)N(C)CCc5ccccn5)c5ccccc54)nc23)c1F [Example 25] , thanks.
-- reply > 0.01 µM

-- ask Need IC50 of CC(C)C(=O)c1cn(-c2nc3c(Nc4c(F)ccc(NS(=O)(=O)c5cccc(Cl)c5Cl)c4F)ncnc3s2)c2ccccc12 [Example 92] , thanks.
-- reply > 0.01 µM

-- ask Need IC50 of Cc1c(F)cccc1S(=O)(=O)Nc1ccc(F)c(Nc2ncnc3sc(-n4cc(C(=O)N(C)CCc5ccccn5)c5ccccc54)nc23)c1F [Example 28] , thanks.
-- reply 0.001 to 0.01 µM

-- ask Need IC50 of O=S(=O)(Nc1ccc(F)c(Nc2ncnc3sc(-n4cnc5ccccc54)nc23)c1F)c1cccc(Cl)c1Cl [Example 4] , thanks.
-- reply 0.001 to 0.01 µM

-- ask Need IC50 of O=S(=O)(Nc1ccc(F)c(Nc2ncnc3sc(-n4cnc(CCO)c4)nc23)c1F)c1cccc(Cl)c1Cl [Example 121] , thanks.
-- reply 0.001 to 0.01 µM

-- ask Need IC50 of Cc1c(Cl)cccc1S(=O)(=O)Nc1ccc(F)c(Nc2ncnc3sc(-n4cnc5ccccc54)nc23)c1F [Example 6] , thanks.
-- reply 0.001 to 0.01 µM

-- ask Need IC50 of O=S(=O)(Nc1ccc(F)c(Nc2ncnc3sc(-n4cnc5c(F)cc(F)cc54)nc23)c1F)c1cccc(Cl)c1Cl [Example 71] , thanks.
-- reply 0.001 to 0.01 µM

-- ask Need IC50 of Cc1c(F)cccc1S(=O)(=O)Nc1ccc(F)c(Nc2ncnc3sc(-n4cc(C(=O)N5C6CCC5COC6)c5ccccc54)nc23)c1F [Example 40] , thanks.
-- reply < 0.001 µM

-- ask Need IC50 of Nc1cccc2c1ncn2-c1nc2c(Nc3c(F)ccc(NS(=O)(=O)c4cccc(Cl)c4Cl)c3F)ncnc2s1 [Example 3] , thanks.
-- reply 0.001 to 0.01 µM

-- ask Need IC50 of CC1(O)CN(C(=O)c2cn(-c3nc4c(Nc5c(F)ccc(NS(=O)(=O)c6cccc(Cl)c6Cl)c5F)ncnc4s3)c3ccccc23)C1 [Example 94] , thanks.
-- reply 0.001 to 0.01 µM

-- ask Need IC50 of Cc1ncn(-c2nc3c(Nc4c(F)ccc(NS(=O)(=O)c5cccc(F)c5C)c4F)ncnc3s2)c1C [Example 1] , thanks.
-- reply 0.001 to 0.01 µM

-- ask Need IC50 of CCOc1cccc2c1ccn2-c1nc2c(Nc3c(F)ccc(NS(=O)(=O)c4cccc(Cl)c4Cl)c3F)ncnc2s1 [Example 108] , thanks.
-- reply 0.001 to 0.01 µM

-- ask Need IC50 of O=C(c1cn(-c2nc3c(Nc4c(F)ccc(NS(=O)(=O)c5cccc(Cl)c5Cl)c4F)ncnc3s2)c2ccccc12)N1CCC(O)(C(F)(F)F)CC1 [Example 97] , thanks.
-- reply > 0.01 µM

-- ask Need IC50 of O=C(c1cn(-c2nc3c(Nc4c(F)ccc(NS(=O)(=O)c5cccc(Cl)c5Cl)c4F)ncnc3s2)c2ccccc12)N1CCC2CCCCC2(O)C1 (stereo not shown) [Example 89] , thanks.
-- reply 0.001 to 0.01 µM
